- method: NCI Yeast Anticancer Drug Screen. Data for the rad50EPP+ strain (AID 151);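 also: 0% = growth of vehicle-treated control cultures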
- conditions-used: S. cerevisiae rad50 mutant strain, at 3.7 µM
The panel holds about 79,000 compounds, 15% with a hit somewhere; the sample as a whole holds those more often. Activity calls are given as the source filed them. Rule as the data show it: active = growth inhibition above about 70%; inactive = the rest.
Respond only with the outcome that fits, drawn from active, inactive

compound | category
Cc1nc2ccc(N=NN(C)C)cc2[nH]1 | inactive
CC1CC[C@]2(C(=O)O)CCC3(C)C(=CC(=O)C4[C@@]5(C)CCC(=O)C(C)(C)C5CC[C@]43C)[C@@H]2[C@H]1C (some centres not stated) | inactive
C/C(=N\Nc1ccc([N+](=O)[O-])cc1[N+](=O)[O-])c1sc(-n2nc(-c3ccccc3)cc2-c2ccccc2)nc1C | inactive

Tell me the recorded outcome of this test for Cc1cc(N(CCOS(C)(=O)=O)CCOS(C)(=O)=O)ccc1C=Nc1ccc(-c2nc(Cc3ccccc3)sc2C)cc1 . inactive

Tell me the recorded outcome of this test for COc1cc(/C=N/Nc2nnc3c4ccccc4c4ncccc4c3n2)cc(OC)c1OC . inactive

Tell me the recorded outcome of this test for CN(C)c1ccc(N=Nc2ccncc2)cc1 . inactive

Tell me the recorded outcome of this test for CC1OC(O[C@H]2/C=C/C=C/C=C/C=C/C=C/C=C/C=C/[C@H](C)[C@@H](O)[C@@H](C)[C@H](C)OC(=O)C[C@H](O)C[C@H](O)CC[C@@H](O)[C@H](O)C[C@H](O)C[C@]3(O)C[C@H](O)[C@@H](C(=O)O)[C@H](C2)O3)C(O)C(N)C1O (some centres not stated) . active

* * *

- method: NCI Yeast Anticancer Drug Screen. Data for the sgs1 strain (AID 173);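 also: 0% = growth of vehicle-only control cultures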
- conditions-used: S. cerevisiae sgs1 mutant, at 33.0 µM
The panel holds about 79,000 compounds, 15% with a hit somewhere; the sample as a whole holds those more often. Activity calls are given as the source filed them. Cut-off read from the data, not from the text of the source: active = growth inhibition above about 70%; inactive = the rest.
Respond only with the outcome that fits, drawn from active, inactive

Study these solved cases before continuing.
compound | category
CCN(CC)Cc1cc(Nc2c3ccccc3nc3c2[nH]c2ccccc23)cc(CN(CC)CC)c1O | inactive
COc1ccc(/C=C/C(=O)c2ccccc2)cc1OC | inactive
CCOC(=O)c1[nH]n(-c2ccccc2)c(=O)c1C=NC(=S)C(N)=S | active

Tell me the recorded outcome of this test for O=C(/C=C\c1cccc(C(F)(F)F)c1)c1ccccc1 . inactive

Tell me the recorded outcome of this test for C#CCN(Cc1ccc2nc(N)[nH]c(=O)c2c1)c1ccc(C(=O)NC(CCC(=O)O)C(=O)O)cc1 (stereo not drawn) . inactive

* * *

- method: NCI Yeast Anticancer Drug Screen. Data for the mlh1 strain (AID 171);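 also: 0% = growth of vehicle-treated control cultures of the same strain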
- conditions-used: S. cerevisiae mlh1 strain growth inhibition; at 3.7 µM; stronger effect = higher value
Compounds without any hit were thinned out: in the full panel of roughly 79,000, 15% have a hit.
Quick reference for growth inhibition among some molecules
Write the number in % without appending the unit.

molecule | growth inhibition / %
CCCCCCCCCCCC1N=C(N)NC(CCCO)=C1C(=O)OC (stereo unspecified) | 99
COc1oc(C(=O)NC2CCCCC2)c(-c2ccc(Cl)cc2)c1S(=O)(=O)c1ccccc1 | -7
CCc1cc(O)c(Cl)c(C)c1Cl | 5

Tell us which growth inhibition value is on record for CNC(=O)OCc1c(COC(=O)NC)c2n(c1C)-c1ccc(OC)cc1CCC2 -31

Tell us which growth inhibition value is on record for O=C(CSC(=S)N1CCCCC1)Nc1nc2c(s1)CCCC2 19

Tell us which growth inhibition value is on record for Cc1sc2ccc3ccccc3c2[n+]1C -62

* * *

- method: NCI Yeast Anticancer Drug Screen. Data for the mec2-1 strain (AID 157)
- conditions-used: S. cerevisiae mec2-1 strain, at 3.7 µM, stronger effect = higher value
The panel holds about 79,000 compounds, 15% with a hit somewhere; the sample as a whole holds those more often.
Use -20% as the dividing line for growth inhibition, with the line itself on the true side and lower values as false.

Study these solved cases before continuing.
molecule | category
CN(C)CCNC(=O)c1cccc2c1Oc1c(cccc1[N+](=O)[O-])O2 | false
O=[N+]([O-])c1cccc2nc3ccccc3c(NCCCn3ccnc3[N+](=O)[O-])c12 | true
O=C1N=C2SC=C(NC(=S)Nc3ccccc3)N2NC12c1ccccc1-c1ccccc12 | true
O=C(O)CNC(=S)Nc1ccccc1 | false
COC(=O)CCC(NC(=S)N/N=C(\C)c1ccccn1)C(=O)OC (stereo not drawn) | true
CC1=C(C(=O)NCc2ccccc2)C(c2ccccc2)C(C(=O)NCc2ccccc2)=C(C)N1 | true

Kindly determine if growth inhibition recorded for Nc1cc(N)c(N=Nc2cccc3c(S(=O)(=O)O)cccc23)cc1N=Nc1cc([N+](=O)[O-])ccc1O is above or exactly -20%. true

Kindly determine if growth inhibition recorded for Nc1ccc(F)cc1S is above or exactly -20%. true

* * *

- method: NCI Yeast Anticancer Drug Screen. Data for the mgt1 strain (AID 153)
- conditions-used: S. cerevisiae mgt1 mutant growth inhibition; at 100.0 µM; stronger effect = higher value
Compounds without any hit were thinned out: in the full panel of roughly 79,000, 15% have a hit.
property-label: growth inhibition (%)
Write the number in % without appending the unit.

compound | units-symbol | growth inhibition
CCOC(=N)c1ccc(O)c(OC)c1 | % | -2

Tell us which growth inhibition value is on record for Cc1cccc[n+]1C1CCc2c(ccc3ccccc23)C1=O (stereo not drawn) 35

Tell us which growth inhibition value is on record for O=C1N=C2SC=C(NC(=S)Nc3ccccc3)N2NC12c1ccccc1-c1ccccc12 88

* * *

- method: NCI Yeast Anticancer Drug Screen. Data for the rad18 strain (AID 177)
- conditions-used: S. cerevisiae rad18 mutant growth inhibition; at 33.0 µM; stronger effect = higher value
This is part of a sample that, as a whole, favours compounds with a hit. Of some 79,000 tested, about 15% had one in any assay.
property-label: growth inhibition (%)
Write the number in % without appending the unit.

molecule | observed
O=C(Nc1ccc(Cl)cc1)Nc1nnc2nc(C(C(=O)c3cccc([N+](=O)[O-])c3Cl)c3nc4nnc(NC(=O)Nc5ccc(Cl)cc5)n4[nH]c3=O)c(=O)[nH]n12 | -2
COc1nc2c(c(=O)n1C)N=C(c1ccccc1)[C@H](C(CC(=O)c1ccccc1)c1ccccc1)C(c1ccccc1)N2 (stereo not given in full) | 46
Cc1cccc2c1nc1ccc(Cl)cc1[n+]2C | 97
CN1C(=O)c2ccc3ccccc3c2C1=O | 39

Tell us which growth inhibition value is on record for CNC(=O)OCc1c(COC(=O)NC)c2n(c1C)-c1ccc(OC)cc1CCC2 96

Tell us which growth inhibition value is on record for CCCCCCSc1ncnc2[nH]ncc12 1

Tell us which growth inhibition value is on record for O=C1Nc2ccc(Br)cc2C1=Nc1ccc2c(c1)OCO2 -44

Tell us which growth inhibition value is on record for C/C(=N\Nc1ccc([N+](=O)[O-])cc1[N+](=O)[O-])c1sc(-n2nc(-c3ccccc3)cc2-c2ccccc2)nc1C 24

Tell us which growth inhibition value is on record for CCCCOCn1c(=O)[nH]c(=O)c2cc(Br)ccc21 9

Tell us which growth inhibition value is on record for COc1cc(O)c2c(c1O)C(=O)c1cc(C)ncc1C2=O 40

* * *

- method: NCI Yeast Anticancer Drug Screen. Data for the mlh1 strain (AID 171);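 also: 0% = growth of vehicle-treated control cultures of the same strain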
- conditions-used: S. cerevisiae mlh1 strain growth inhibition; at 33.0 µM
The panel holds about 79,000 compounds, 15% with a hit somewhere; the sample as a whole holds those more often. Calls of active or inactive are those of the source. Rule as the data show it: active = growth inhibition above about 70%; inactive = the rest.
Respond only with the outcome that fits, drawn from yes for active, no for inactive

Study these solved cases before continuing.
molecule | category
CC(=O)Nc1ccc2c(c1)-c1ccccc1C2=O | no
O=C(O)CCCC1CCCc2c1ccc1ccccc21 (centres undefined) | no
CN(C)/C=C/c1nnc([N+](=O)[O-])s1 | no
CC1SC2(C(=O)Nc3ccc(Cl)cc32)N(c2ccc(Cl)cc2)C1=O (centres undefined) | yes

Tell me the recorded outcome of this test for O=C1C(Br)=C(c2ccccc2)O/C1=C/C(=O)c1ccc(Br)cc1 . no

Tell me the recorded outcome of this test for COc1ccc(C(=O)Oc2ccccc2Br)cc1 . no

Tell me the recorded outcome of this test for CCOc1c(N=Nc2ccccc2OC)c(C)nn1C(=S)S . no

Tell me the recorded outcome of this test for O=C(CC(=O)n1nc(-c2ccccc2)c(N=Nc2ccc(Cl)cc2)c1-c1ccccc1)Nc1cccc(Cl)c1 . no

Tell me the recorded outcome of this test for N#CC(=Nc1ccccc1F)Nc1ccccc1F . no

Tell me the recorded outcome of this test for CCOC(=O)c1ccc(NC(=O)O/N=C(/Cl)C(C)C)cc1 . yes

Tell me the recorded outcome of this test for OC(/C=C/c1ccccc1)(Cc1cc(-c2ccccc2)n[nH]1)c1ccccc1 (centres undefined) . no

* * *

Quick reference for growth inhibition among some compounds
- method: NCI Yeast Anticancer Drug Screen. Data for the rad52 strain (AID 147);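 also: 0% = growth of vehicle-treated control cultures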
- conditions-used: S. cerevisiae rad52 mutant growth inhibition; at 33.0 µM; stronger effect = higher value
Compounds without any hit were thinned out: in the full panel of roughly 79,000, 15% have a hit. Activity calls are given as the source filed them. No stated cut-off is given here; in the data, active means growth inhibition above about 70%; inactive means the rest.

Below, 8 compounds whose answers are already recorded.
compound | growth inhibition
COC(=O)/C=C(/CC(=O)OC)C(=O)OC | -1% (inactive)
c1ccc(Cc2cc(-c3ccccc3)n[nH]2)cc1 | 0% (inactive)
O=c1ccc(=O)n(-c2ccccc2)[nH]1 | 79% (active)
CC1SC2(C(=O)Nc3ccc(Cl)cc32)N(c2ccc(Cl)cc2)C1=O (centres undefined) | 98% (active)
Cc1cc2c3ccccc3c3ccccc3c2nn1 | 74% (active)
Cc1cc2c(cc1C)[n+]([O-])c(-c1nc3ccccc3s1)c(N)[n+]2[O-] | 35% (inactive)
COc1cccc(/C=N/C(/N=C/c2cccc(OC)c2O)c2cccc(OC)c2O)c1O | 67% (inactive)
COC1CCC(O)C(/C=C/[N+](=O)[O-])C1 (centres undefined) | 99% (active)

Tell us which growth inhibition value is on record for CCCOC(=O)C(F)C(Br)C(=O)OCCC (centres undefined) 96% (active)

Tell us which growth inhibition value is on record for CCC(C)NC1=NCC(C)S1 (centres undefined) -29% (inactive)

Tell us which growth inhibition value is on record for COc1ccc(C(=O)Oc2ccccc2Br)cc1 19% (inactive)

Tell us which growth inhibition value is on record for C[Si](C)(C)/C=C/CCNC(C#N)c1ccccc1 (centres undefined) 32% (inactive)

Tell us which growth inhibition value is on record for O=C1C=C(c2ccccc2)OC1(c1ccccc1)N1CCOCC1 (centres undefined) 16% (inactive)

Tell us which growth inhibition value is on record for Cc1ccc(S/C(=C\C(=O)O)c2ccccc2)cc1 28% (inactive)

Tell us which growth inhibition value is on record for Cc1ccc(NC(=O)/C(CC2N=c3c(ccc4c(O)c5ccccc5c(O)c34)=NC2O)=N/NC(C)(C)C)cc1 (centres undefined) 49% (inactive)

Tell us which growth inhibition value is on record for Cc1c(-c2ccccn2)ccc2ccccc12 2% (inactive)

Tell us which growth inhibition value is on record for O=[N+]([O-])c1cccc2nc3ccccc3c(NCCC[N+]3([O-])CCCCC3)c12 90% (active)

Tell us which growth inhibition value is on record for CC1(C)CC(=O)C(/C=N/c2nc(-c3ccccc3)cs2)=C(O)C1 41% (inactive)

Tell us which growth inhibition value is on record for CCOC(=O)c1cc([N+](=O)[O-])c(Sc2ncnc3nc[nH]c23)c([N+](=O)[O-])c1 79% (active)

Tell us which growth inhibition value is on record for CN(C)[C@@H]1C(=O)C(C(N)=O)=C(O)[C@@]2(O)C(=O)C3=C(O)c4c(O)cccc4C[C@H]3C[C@@H]12 97% (active)

Tell us which growth inhibition value is on record for COC1=C(N)C(=O)c2nc(-c3nc(C(=O)O)c(C)c(-c4ccc(OC)c(OC)c4O)c3N)ccc2C1=O 98% (active)

Tell us which growth inhibition value is on record for OC(/C=C/c1ccccc1)(Cc1cc(-c2ccccc2)n[nH]1)c1ccccc1 (centres undefined) 14% (inactive)
